- Tested on: CP325
- Procedure text: qHTS profiling for inhibitors of Plasmodium falciparum proliferation (AID 504749);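 also: 0% = DMSO vehicle and full inhibition = artemisinin control; nearly all actives have a fitted effect of over 60% in size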
- Run parameters: P. falciparum in erythrocytes, SYBR Green DNA, 72 h; series mostly up to 28.7 µM
Records with an inconclusive call do not appear. Calls of active or inactive are those of the source. Calls follow the shape of the dose curve; as a rule, active = well fitted inhibition curve with a large enough effect; inconclusive = small, poorly fitted or top-dose-only effect; inactive = flat fitted curve, though single readings scatter.
Select the correct class. Options are label 1 for active, label 0 for inactive and nothing else.

Compound	Class assignment
C[C@H](CS)C(=O)N1CCC[C@H]1C(=O)O	label 0

q: Could you check what this test reported for `CCOC(=O)c1cnc2c(cnn2CC)c1NN=C(C)C` ?
a: label 0

q: Moving on to `CCCN1C[C@H](CSC)C[C@@H]2c3cccc4[nH]cc(c34)C[C@H]21`
a: label 0

q: Moving on to `CCN(CC)CC(=O)Nc1c(C)cccc1C`
a: label 0

###

Parameter activity, negative = cell killing: see the listing below.
- Procedure text: Drug repurposing screens with cells derived from glioblastoma tumor samples (AID 1345199); also: % is scaled to controls: 0 for no effect and ±100 for the full control effect; nearly all actives have a fitted effect of over 40% in size
- Run parameters: GBM patient neurospheres viability, ATP luminescence, 48 h; at 46 µM (top of the series); tumour line A
Results filed as inconclusive are left out.
The answer is to be given in %; state only the numeric part.

As a guide, the following entries are already answered.
Compound	activity, negative = cell killing / %
NCCCNCCSP(=O)(O)O	-3.51
CC1=NS(=O)(=O)c2cc(Cl)ccc2N1	-21.7
C[N+](C)(C)CCOC(=O)CCC(=O)OCC[N+](C)(C)C	-19.2

q: Reported activity, negative = cell killing, compound `CN(C)C(=O)Oc1cccc([N+](C)(C)C)c1` : ____
a: -24.8

###

Parameter activity, negative = cell killing: see the listing below.
- Procedure text: Drug repurposing screens with cells derived from glioblastoma tumor samples (AID 1345199); also: % is scaled to controls: 0 for no effect and ±100 for the full control effect; nearly all actives have a fitted effect of over 40% in size
- Run parameters: GBM patient neurospheres viability, ATP luminescence, 48 h; at 45.9 µM (top of the series); tumour line B
Inconclusive results are not listed.
The answer is to be given in %; state only the numeric part.

As a guide, the following entries are already answered.
Compound	Unit abbreviation	Reported value
CN1C(=O)CC[C@H]1c1cccnc1	%	-1.32
CC(=O)OCC1=C(C(=O)O)N2C(=O)[C@@H](NC(=O)Cc3cccs3)[C@H]2SC1	%	5.86
CC1=NS(=O)(=O)c2cc(Cl)ccc2N1	%	-1.9
COc1ccc(CN(CCN(C)C)c2ccccn2)cc1	%	-3.6
CC(C)NNC(=O)c1ccncc1	%	-11.9

q: Reported activity, negative = cell killing, compound CCN(Cc1ccncc1)C(=O)C(CO)c1ccccc1 (stereo not drawn) : ____
a: -2.8

q: Moving on to `FC(F)(F)c1ccccc1-n1ccnc1`
a: -13.1

q: Moving on to Nc1c2c(nc3ccccc13)CCCC2O (stereo not drawn)
a: 4.45

q: Moving on to `NC(=O)c1cn(Cc2c(F)cccc2F)nn1`
a: -2.3

q: Moving on to `O=C(O)CP(=O)(O)O`
a: -17.9

###

Parameter activity, negative = cell killing: see the listing below.
- Procedure text: Drug repurposing screens with cells derived from glioblastoma tumor samples (AID 1345199); also: % is scaled to controls: 0 for no effect and ±100 for the full control effect; nearly all actives have a fitted effect of over 40% in size
- Run parameters: GBM patient neurospheres viability, ATP luminescence, 48 h; at 45.9 µM (top of the series); tumour line B
Results filed as inconclusive are left out.
The answer is to be given in %; state only the numeric part.

As a guide, the following entries are already answered.
Compound	activity, negative = cell killing [%]
C[C@]12CC[C@@H]3c4ccc(O)cc4C[C@@H](CCCCCCCCCS(=O)CCCC(F)(F)C(F)(F)F)[C@H]3[C@@H]1CC[C@@H]2O (some centres undefined)	11.9
CC(C)(C)NCC(O)c1cc(O)cc(O)c1 (centres undefined)	0.586
O=C(O)CN(CCN(CC(=O)O)CC(=O)O)CCN(CC(=O)O)CC(=O)O	-4.92

q: Reported activity, negative = cell killing, compound `C[C@]12CCC(=O)C=C1CC[C@@H]1[C@@H]2C(=O)C[C@@]2(C)[C@H]1CC[C@]2(O)C(=O)CO` : ____
a: -3.67

q: Moving on to COCCOC(=O)C1=C(C)NC(C)=C(C(=O)OC(C)C)C1c1cccc([N+](=O)[O-])c1 (centres undefined)
a: -4.05

q: Moving on to `C#CCN(C)CCCOc1ccc(Cl)cc1Cl`
a: -0.374

###

- Target entity: Glutaminase kidney isoform, mitochondrial (Homo sapiens)
- Procedure text: qHTS for Inhibitors of Glutaminase (GLS): LOPAC Validation (AID 624146);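 also: glutamate product detected by oxidase and peroxidase coupled Amplex red fluorescence gain; % is scaled to controls: 0 for no effect and ±100 for the full control effect; nearly all actives have a fitted effect of over 60% in size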
- Run parameters: glutaminase enzyme activity inhibition; series mostly up to 46.1 µM
Results filed as inconclusive are left out. Activity calls are given as the source filed them. Calls follow the shape of the dose curve; as a rule, active = well fitted inhibition curve with a large enough effect; inconclusive = small, poorly fitted or top-dose-only effect; inactive = no such curve, though single readings can be large or run the other way.
Select the correct class. Options are yes = active, no = inactive and nothing else.

# example entries with known answers
Compound	Class assignment
C[C@]12CCC(=O)C=C1CC[C@@H]1[C@@H]2CC[C@@]2(C)[C@H]1CC[C@]2(O)C(=O)CO	no
COC(=O)C1=C(C)NC(C)=C(C(=O)OC(C)(C)CN(C)CCC(c2ccccc2)c2ccccc2)C1c1cccc([N+](=O)[O-])c1 (stereo not given)	no
NCCCNCCSP(=O)(O)O	no

q: Could you check what this test reported for `CC(C)NNC(=O)c1ccncc1` ?
a: no

q: Moving on to Nc1c2c(nc3ccccc13)CCCC2O (stereo not given)
a: no

q: Moving on to `CN1C(=O)CC[C@H]1c1cccnc1`
a: no

q: Moving on to CCOC(=O)C1=C(C)NC(C)=C(C(=O)OC)C1c1cccc(Cl)c1Cl (stereo not given)
a: no

q: Moving on to `CN1C[C@H](C(=O)N[C@]2(C)O[C@@]3(O)[C@@H]4CCCN4C(=O)[C@H](Cc4ccccc4)N3C2=O)C[C@@H]2c3cccc4[nH]cc(c34)C[C@H]21`
a: no

###

- Procedure text: High Content Imaging Cell-Based qHTS for Inhibitors of the mTORC1 Signaling Pathway in MEF (Tsc2-/-, p53-/-) Cells (AID 2666);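 also: percent of cells scored positive for phospho-rpS6 Ser235/236 immunostaining by imaging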
- Run parameters: series mostly up to 38.3 µM
- Excerpt: NIH Molecular Libraries Probe Production Centers Network [MLPCN] NIH Chemical Genomics Center [NCGC] Assay Submitter (PI): Blenis, John; Hoffman, Greg; Harvard University […] For quantitative high throughput analysis of mTORC1 signaling, we developed a cell-based assay for immuno-fluorescence based detection of rpS6 phosphorylation on the Acumen Explorer that will be used a platform for the primary small molecule screen. […]
Inconclusive results are not listed. The source made the active and inactive calls. The call rests on the fitted dose curve; in most records, active means well fitted inhibition curve with a large enough effect; inconclusive means small, poorly fitted or top-dose-only effect; inactive means flat fitted curve, though single readings scatter.
Result type: outcome

As a guide, the following entries are already answered.
Compound	outcome
O=C(O)CCCCCCCC(=O)O	inactive
COCCOC(=O)C1=C(C)NC(C)=C(C(=O)OC(C)C)C1c1cccc([N+](=O)[O-])c1 (stereo not given)	inactive
OC(CCN1CCCCC1)(c1ccccc1)C1CCCCC1 (stereo not given)	inactive
COC(=O)[C@H]1[C@H]2C[C@@H]3c4[nH]c5cc(OC)ccc5c4CCN3C[C@H]2C[C@@H](OC(=O)c2cc(OC)c(OC)c(OC)c2)[C@@H]1OC	inactive

// below: outcome requested for another compound
q: Reported outcome, compound `CN(C)CCOC(=O)COc1ccc(Cl)cc1` : ____
a: inactive

###

- Test system: MKL-2
- Procedure text: qHTS assay to identify novel small-molecules to repurpose for Merkel cell carcinoma treatment (AID 1296009); also: nearly all actives have a fitted effect of over 60% in size
- Run parameters: MCC and control cell lines, CellTiter-Glo viability, 72 h; series mostly up to 46 µM
Inconclusive results are not listed. Activity calls are given as the source filed them. Calls come from the whole dose curve; as a rule, active = well fitted inhibition curve with a large enough effect; inconclusive = small, poorly fitted or top-dose-only effect; inactive = flat fitted curve, though single readings scatter.
Select the correct class. Options are active, inactive and nothing else.

Compound	Class assignment
CC(C)(Oc1ccc(CCNC(=O)c2ccc(Cl)cc2)cc1)C(=O)O	inactive
COc1ccc(CN(CCN(C)C)c2ccccn2)cc1	inactive
CCCCOCCOCCOCc1cc2c(cc1CCC)OCO2	inactive
NS(=O)(=O)c1cc2c(cc1Cl)NC(C1CC3C=CC1C3)NS2(=O)=O (stereo not given)	inactive

q: Could you check what this test reported for Cc1cccc(C)c1NC(=O)C(C)N (stereo not given) ?
a: inactive

q: Moving on to `O=C(O)CP(=O)(O)O`
a: inactive

q: Moving on to `CN1C[C@H](C(=O)N[C@]2(C)O[C@@]3(O)[C@@H]4CCCN4C(=O)[C@H](Cc4ccccc4)N3C2=O)C[C@@H]2c3cccc4[nH]cc(c34)C[C@H]21`
a: inactive

q: Moving on to `CC1=NS(=O)(=O)c2cc(Cl)ccc2N1`
a: inactive

q: Moving on to `CC(=O)[C@]1(O)Cc2c(O)c3c(c(O)c2[C@@H](O[C@H]2C[C@H](N)[C@H](O)[C@H](C)O2)C1)C(=O)c1ccccc1C3=O`
a: active

q: Moving on to `CN(C(=O)CCCOc1ccc2[nH]c(=O)ccc2c1)C1CCCCC1`
a: inactive

###

- Target entity: Flap endonuclease 1 (Homo sapiens)
- Procedure text: qHTS Validation Assay for the Inhibitors of Human Flap endonuclease 1 (FEN1) (AID 488816); also: % is scaled to controls: 0 for no effect and ±100 for the full control effect
- Run parameters: FEN1 nuclease activity, fluorogenic DNA substrate; series mostly up to 57.1 µM
Calls of active or inactive are those of the source. The call rests on the fitted dose curve; in most records, active means well fitted inhibition curve with a large enough effect; inconclusive means small, poorly fitted or top-dose-only effect; inactive means flat fitted curve, though single readings scatter.
Result type: Potency

Compound	Potency
C[C@@H](O)[C@H]1C(=O)N2C(C(=O)O)=C(SCCN=CN)C[C@H]12	inactive
CN=C(NC#N)NCCSCc1nc[nH]c1C	inactive
C[C@]12CCC(=O)C=C1CC[C@@H]1[C@@H]2C(=O)C[C@@]2(C)[C@H]1CC[C@]2(O)C(=O)CO	inactive
CNC1(C)C2CCC(C2)C1(C)C (stereo not drawn)	inactive
c1cc(CN2CCCCC2)cc(OCCCNc2nc3ccccc3s2)c1	inactive

q: Reported Potency, compound `CCCCCCCC/C=C\CCCCCCCC(=O)NCc1ccc(O)c(OC)c1` : ____
a: inactive

q: Moving on to `CCN(CC)CCOCCOC(=O)C1(c2ccccc2)CCCC1`
a: inactive

q: Moving on to `CC(=O)[C@@]1(O)CC[C@H]2[C@@H]3CCC4=CC(=O)CC[C@]4(C)[C@H]3CC[C@@]21C`
a: inactive

q: Moving on to C=CCc1ccccc1OCC(O)CNC(C)C (stereo not drawn)
a: inactive

q: Moving on to `FC(F)(F)c1ccccc1-n1ccnc1`
a: inactive
